Data origin: PubChem BioAssay AID751

# Test system: 26S proteasome (yeast, GFP-tagged, ATP-dependent disassembly)
# protocol: inhibitors of ATP-driven 26S proteasome dissociation, primary screen, biochemical, bead-based flow cytometry, GFP-tagged proteasome (AID 751);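 also: plate controls were ATP control with full disassembly for no effect and ATP-gamma-S intact proteasomes for full effect; higher percent means more bead fluorescence retained so stronger block of disassembly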
# test_settings: anti-FLAG beads, concentration not given here
Hit rate of the full screen: of about 24,000 compounds, about 40 (0.2%) were called active.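 The calls were made as follows: active = inhibition of disassembly above about 33% (limit read from the data); inconclusive = likely self-fluorescent, control bead median signal at least 40; inactive = the rest.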 What follows is part of a selection rich in actives, with near analogues and random picks from the rest.
Just give me one of these, please: yes (1) = active, no (0) = inactive

-- ask Would you mind telling me which call this test gave Cc1oc(-c2ccccc2F)nc1CS(=O)(=O)CC(=O)NCCCN(C)C1CCCCC1 ?
-- reply no (0)

-- ask Please share the test call associated with CC(C)CNC(=O)c1cc(-c2ccc(Br)cc2)on1 .
-- reply no (0)

-- ask How did this test come out for O=C(CN1CCN(c2ccccc2F)CC1)c1ccc2c(c1)OCO2 ?
-- reply no (0)

-- ask Query: recorded result category for Cc1c2cn[nH]c(=O)c2c(C)n1Cc1ccc(F)cc1 in this test
-- reply no (0)

-- ask Please let me know the test result on file for C#CCN1C(=O)C(O)(CC(=O)c2cc(OC)ccc2OC)c2ccccc21 (stereo unspecified) .
-- reply no (0)

-- ask Identify the outcome logged in this assay for the molecule shown: CCOC(=O)c1sc(=S)n2c1[nH]c(=O)c1ccc(C(=O)OC)cc12
-- reply no (0)

-- ask Dear all, I need the recorded test outcome for O=C(CCN1C(=O)c2ccncc2C1=O)Nc1ccc2c(c1)OCCO2 , thank you.
-- reply no (0)

-- ask Give the logged outcome of this assay for the following molecule: Fc1ccc2nc(N3CCCCC3)sc2c1
-- reply no (0)

-- ask Hi, do you know how COCCn1c(CN(Cc2ccccc2)Cc2ccccc2)nc2c1c(=O)n(C)c(=O)n2C came out in this test?
-- reply no (0)

-- ask What call does the record list for Fc1ccc2nc(Nc3nc4c(s3)CCCC4)sc2c1 ?
-- reply yes (1)

Next up:
-- ask # lookup: test call for CC(c1nnc(SCC(=O)Nc2sccc2C#N)n1-c1ccc(Cl)cc1)N(C)C (stereo unspecified)
-- reply no (0)
